- Test system: SR
- method.description: NCI tumour cell line growth inhibition, 48 h
Active and inactive are the calls of the source. Cut-off read from the data, not from the text of the source: active = GI50 up to about 1.1 µM and inactive = higher.
Item-by-item account of GI50

Use the examples below as a reference point.
[
  {
    "compound": "Nc1nc(Cl)c(N)c(NCC2(CO)CCC2)n1",
    "result": "> 100 µM (inactive)"
  },
  {
    "compound": "C[N+]1=C(c2cccnc2/C=N/O)OCC1(C)C",
    "result": "> 100 µM (inactive)"
  },
  {
    "compound": "COC(=O)C[C@H](CCSC)NC(=O)C[C@H](CCSC)NC(=O)C[C@H](CCSC)NC(=O)OC(C)(C)C",
    "result": "39.6 µM (inactive)"
  },
  {
    "compound": "C=CCC(NCc1ccccc1)[C@H](OCc1ccccc1)[C@@H]1COC(C)(C)O1 (stereo not given in full)",
    "result": "21.1 µM (inactive)"
  }
]

Q) Need GI50, item CC(/C(=N\Nc1ccccc1)c1ccc(O)cc1)C1C(=O)Oc2ccccc21 (stereo not given)
A) > 100 µM (inactive)

Q) Give its GI50 value. Item: `C[C@@H](NC(=O)Nc1cccc(C(=O)Nc2cc(C(C)(C)C)ccc2C(=O)O)n1)c1ccccc1`
A) 28.4 µM (inactive)

Q) Which GI50 value is on record for `O=C(O)CSc1nnc(COc2ccccc2)n1-c1ccccc1` ?
A) > 100 µM (inactive)

Q) Query: GI50; subject: `C=C1C(=O)O[C@H]2[C@H]3O[C@@H](C[C@@H]12)[C@@]1(C)CC[C@H](O1)C(C)=CCC[C@H]3C`
A) 0.065 µM (active)

----------
- Test system: RPMI-8226
- method.description: NCI tumour cell line growth inhibition, 48 h
The source made the active and inactive calls. Rule as the data show it: active = GI50 up to about 1.1 µM and inactive = higher.
reported.endpoint: GI50

As a guide, the following entries are already answered.
[
  {
    "compound": "Oc1ccc(Cl)cc1/C=N/c1cnc2ccccc2c1",
    "result": "13.1 µM (inactive)"
  },
  {
    "compound": "CC12CCC3=C(CSC4=C3CSc3ccccc34)C1=CCCC2=O (centres undefined)",
    "result": "61.2 µM (inactive)"
  },
  {
    "compound": "O=C(c1ccc(Cl)cc1Cl)C1[C@H]2C(=O)N(c3ccc(Cc4ccc(N5C(=O)[C@@H]6ON(c7ccccc7)C(C(=O)c7ccc(Cl)cc7Cl)[C@@H]6C5=O)cc4)cc3)C(=O)[C@H]2ON1c1ccccc1 (some centres undefined)",
    "result": "> 50 µM (inactive)"
  }
]

We next turn to a different compound, shown below.
Q) Quick one: GI50 for `COc1ccc(/C=C2\CCS(=O)(=O)c3ccccc3C2=O)cc1` ?
A) 19.3 µM (inactive)

----------
- System: MCF7
- method.description: NCI tumour cell line growth inhibition, 48 h
Active and inactive are the calls of the source. Cut-off read from the data, not from the text of the source: active = GI50 up to about 1.1 µM and inactive = higher.
reported.endpoint: GI50

Worked set:
[
  {
    "molecule": "C[C@]12CCC(O)CC1=CC[C@@H]1[C@@H]2CC[C@]2(C)C(=O)[C@H](n3ccnc3)C[C@@H]12 (stereo partly drawn)",
    "reported.endpoint": "GI50",
    "result": "35.8 µM (inactive)"
  },
  {
    "molecule": "COc1ccc(/C=C2\\CCS(=O)(=O)c3ccccc3C2=O)cc1",
    "reported.endpoint": "GI50",
    "result": "35.4 µM (inactive)"
  },
  {
    "molecule": "O=[N+]([O-])c1ccc(CSc2c3ccccc3nc3ccccc23)cc1",
    "reported.endpoint": "GI50",
    "result": "2.51 µM (inactive)"
  }
]

Q) Value lookup for GI50; key = `CCOC(=O)c1oc2ccc([N+](=O)[O-])c3c2c1CCC3`
A) > 76.6 µM (inactive)

Q) # GI50 lookup, item `Cn1c(=O)c2c(O)cc(N)nc2n(C)c1=O`
A) > 100 µM (inactive)

Q) What does the data say about its GI50? Entry: COC(=O)C1=C(C)C(=O)[C@]23C(CCCC[C@H]12)C(=O)[C@H](C(=O)OC)C3C (stereo partly drawn)
A) > 100 µM (inactive)

Q) // GI50 lookup, key: `S=C1SC(=N\c2ccccc2)/C(=N/c2ccccc2)N1c1ccc2ccccc2c1`
A) > 100 µM (inactive)

Q) Which GI50 is listed for C[C@H]1SC(c2ccc(Cl)cc2Cl)N(NC(=O)c2ccncc2)C1=O (stereo partly drawn) ?
A) 8.59 µM (inactive)

Q) Find the recorded GI50 belonging to CC1CCCC(CC(=O)O)(CC(=O)O)C1 (stereo not drawn) and report it.
A) > 100 µM (inactive)

Q) Name the recorded GI50 for `O=C1c2ccccc2C(=O)N1CCCCCCNOCCCN1C(=O)c2ccccc2C1=O` .
A) 35.3 µM (inactive)

Q) Look up GI50: N[C@@H](CCC(=O)NC(Cc1ccccc1)C(=O)NCP(=O)(O)O)C(=O)O (stereo partly drawn)
A) > 100 µM (inactive)

Q) What does the record list as GI50 for `COC(=O)N1CC[C@@H]2CCC=C(c3cccc4c3OCO4)[C@@H]21` ?
A) > 100 µM (inactive)

Q) Could you share which GI50 value was measured for `CCCCCCCCCCCCCCCCOc1ccc(/C=C/C2=[N+](CCCl)CCO2)cc1` ?
A) > 100 µM (inactive)

Q) // GI50 lookup, key: `CCOC(=O)c1cn(C)c(=S)n2c1nc1ccccc12`
A) 44.6 µM (inactive)

Q) Name the recorded GI50 for COc1cc(C2=C(C#N)C(N)OC3=C2COc2ccccc23)cc(OC)c1OC (stereo not drawn) .
A) > 100 µM (inactive)
